These measurements were taken from patent US6846840B2.

Below, each entry is listed with its recorded Log LC50.
# Test system: COLON cancer cell lines
# condition.details: log of concentration causing 50% lethality; arithmetic average of six to eight colon cell lines
Response body: numeric value in moles/liter, unit text excluded.

// worked examples, Log LC50 included
{"molecule": "CC1=C(N2CC2)C(=O)c2[nH]c3c(c2C1=O)CCC3=O [Cyclopent[b]indole 3e]", "assayed.target": "COLON cancer cell lines", "unit.descriptor": "moles/liter", "Log LC50": "−5.44"}
{"molecule": "CC(=O)OCc1[nH]c2c(c1C)C(=O)C(N1CC1)=C(C)C2=O [Indole 1c]", "assayed.target": "COLON cancer cell lines", "unit.descriptor": "moles/liter", "Log LC50": "−5.08"}
{"molecule": "CC1=C(N2CC2)C(=O)c2[nH]c(CO)c(C)c2C1=O [Indole 2b]", "assayed.target": "COLON cancer cell lines", "unit.descriptor": "moles/liter", "Log LC50": "−4.2"}

Next molecule, please.
Identify measured Log LC50 associated with CC(=O)OC1CCc2c3c(n(C(C)=O)c21)C(=O)C(N1CC1)=C(C)C3=O (centres unmarked) [Cyclopent[b]indole 14]
−4.77
